B1: Calcium-binding protein 2, residues 155 to 219; numbered along this chain, Q9NPB3 (parent)
chain: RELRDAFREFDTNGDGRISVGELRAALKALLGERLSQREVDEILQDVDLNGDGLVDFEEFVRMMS

variants of: B1; assay: abundance fitness (aPCA) (normalised: wild type 0, dead -1); higher = more abundant; growth selection in yeast, the domain comes from the species named; conditions: Homo sapiens
Quick rule for you: abundance fitness at -0.02 or higher means 1 (yes), lower means 0 (no).

| Query Sequence | Category |
| --- | --- |
| RELRDAFREFDTNGDGRMSVGELRAALKALLGERLSQREVDEILQDVDLNGDGLVDFEEFVRMMS [I18M] | 1 (yes) |
| RELRDAFREFDTNGDGRISVGELRAALKALLGERLSQREVPEILQDVDLNGDGLVDFEEFVRMMS [D41P] | 0 (no) |
| RELRDAFREFDTNGDGRISVGELRAALKALLGERLSQREVDEIHQDVDLNGDGLVDFEEFVRMMS [L44H] | 1 (yes) |
| RELRDAFREFDTNGDGRISVGELRAAWKALLGERLSQREVDEILQDVDLNGDGLVDFEEFVRMMS [L27W] | 0 (no) |
| RELRDAFREFHTNGDGRISVGELRAALKALLGERLSQREVDEILQDVDLNGDGLVDFEEFVRMMS [D11H] | 0 (no) |
| RELRDAFREFDTNGDGRISVGELRAMLKALLGERLSQREVDEILQDVDLNGDGLVDFEEFVRMMS [A26M] | 1 (yes) |
| RELRDAFREFDFNGDGRISVGELRAALKALLGERLSQREVDEILQDVDLNGDGLVDFEEFVRMMS [T12F] | 0 (no) |
| RELRDAFRGFDTNGDGRISVGELRAALKALLGERLSQREVDEILQDVDLNGDGLVDFEEFVRMMS [E9G] | 1 (yes) |
| RELRDAFREFDTNGDGRISVGELRAALKALLGERLSQREVDEILQDVDLNGDGLVDFEEFVDMMS [R62D] | 1 (yes) |
